Lab note: IC50 readings collected with UniProt:P07374 for the following compounds.
Readout: IC50 (µM)

# example entries with known answers
- CO/N=C(\C(=O)N[C@@H]1C(=O)N2C(C(=O)O)=C(COC(C)=O)CS[C@H]12)c1csc(N)n1 [cefotaxime]: 27.4
- COCC1=C(C(=O)O)N2C(=O)[C@@H](NC(=O)/C(=N\OC)c3csc(N)n3)[C@H]2SC1 [cefpodoxime]: 23.7
- CO/N=C(\C(=O)N[C@@H]1C(=O)N2C(C(=O)O)=C(CSc3nc(=O)c(=O)[nH]n3C)CS[C@H]12)c1csc(N)n1 [ceftriaxone]: 157
- C=CC1=C(C(=O)O)N2C(=O)[C@@H](NC(=O)/C(=N\OCC(=O)O)c3csc(N)n3)[C@H]2SC1 [cefixime]: 215
- CO/N=C(\C(=O)N[C@@H]1C(=O)N2C(C(=O)[O-])=C(C[N+]3(C)CCCC3)CS[C@H]12)c1csc(N)n1 [cefepime]: 78.6
- CC1=C(C(=O)O)N2C(=O)[C@@H](NC(=O)[C@H](N)c3ccccc3)[C@H]2SC1 [cefalexin]: 146

[I] O=C(O)c1cn(C2CC2)c2cc(N3CCNCC3)c(F)cc2c1=O [ciprofloxacin]
[II] CC1COc2c(N3CCN(C)CC3)c(F)cc3c(=O)c(C(=O)O)cn1c23 (stereo not shown) [ofloxacin]
[III] CO/N=C(\C(=O)N[C@@H]1C(=O)N2C(C(=O)O)=C(COC(N)=O)CS[C@H]12)c1ccco1 [cefuroxime]
[IV] CC1=C(C(=O)O)N2C(=O)[C@@H](NC(=O)[C@H](N)c3ccc(O)cc3)[C@H]2SC1 [cefadroxil]
Ask: Parameters: sort_field (IC50), sort_dir (desc). Please respond with the labels ordered as the question requires.
Result: III, I, IV, II

###

Target: JB urease enzyme (Canavalia ensiformis, UniProt P07374)
Sequence (P07374 whole entry, looked up): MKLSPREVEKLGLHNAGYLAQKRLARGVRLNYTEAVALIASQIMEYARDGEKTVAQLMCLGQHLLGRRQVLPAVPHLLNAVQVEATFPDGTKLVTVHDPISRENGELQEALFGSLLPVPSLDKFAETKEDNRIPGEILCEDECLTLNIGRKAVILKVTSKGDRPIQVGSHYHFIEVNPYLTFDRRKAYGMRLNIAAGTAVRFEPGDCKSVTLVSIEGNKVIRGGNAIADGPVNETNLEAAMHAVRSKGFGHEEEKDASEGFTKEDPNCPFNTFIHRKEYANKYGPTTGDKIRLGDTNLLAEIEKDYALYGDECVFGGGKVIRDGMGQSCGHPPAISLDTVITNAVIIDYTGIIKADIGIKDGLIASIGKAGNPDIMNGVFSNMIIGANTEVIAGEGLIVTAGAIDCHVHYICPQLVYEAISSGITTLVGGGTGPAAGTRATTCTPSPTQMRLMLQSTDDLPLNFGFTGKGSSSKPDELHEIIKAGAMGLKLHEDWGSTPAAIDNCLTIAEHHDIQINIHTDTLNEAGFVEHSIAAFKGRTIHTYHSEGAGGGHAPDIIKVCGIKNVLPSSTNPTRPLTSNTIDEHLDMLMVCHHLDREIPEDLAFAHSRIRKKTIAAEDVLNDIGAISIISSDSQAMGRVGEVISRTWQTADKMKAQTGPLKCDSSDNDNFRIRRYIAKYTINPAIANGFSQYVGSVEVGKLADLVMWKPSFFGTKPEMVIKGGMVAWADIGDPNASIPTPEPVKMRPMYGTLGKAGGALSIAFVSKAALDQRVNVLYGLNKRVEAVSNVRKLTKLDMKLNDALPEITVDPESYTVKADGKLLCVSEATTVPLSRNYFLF
Assay: Kinetic analysis of JB urease inhibition
Assay type: biochemical, jack bean
Details: JB urease; inhibitory constant
Readout: pKi
# pKi is unitless: minus log10 of the molar concentration; print number only

Ask: Sample NC(N)=S [thiourea] — what was its pKi?
Result: 4.71

###

Target: UniProt P07374
Experiment: Urease inhibitory assay
Type: biochemical
Settings: read-out: inhibition (%) at 0.25 mM, JB urease; 0.25 mM; mean ± SEM, n = 3–4
Readout: inhibition at 250 µM (%)

# example entries with known answers
• CO/N=C(\C(=O)N[C@@H]1C(=O)N2C(C(=O)[O-])=C(C[N+]3(C)CCCC3)CS[C@H]12)c1csc(N)n1 [cefepime] = 73.3
• C[C@H]1COc2c(N3CCN(C)CC3)c(F)cc3c(=O)c(C(=O)O)cn1c23 [levofloxacin] = 81.9
• CC1COc2c(N3CCN(C)CC3)c(F)cc3c(=O)c(C(=O)O)cn1c23 (stereo not drawn) [ofloxacin] = 83.7
• CO/N=C(\C(=O)N[C@@H]1C(=O)N2C(C(=O)O)=C(COC(C)=O)CS[C@H]12)c1csc(N)n1 [cefotaxime] = 81.9
• CO/N=C1\CN(c2nc3c(cc2F)c(=O)c(C(=O)O)cn3C2CC2)CC1CN (stereo not drawn) [gemifloxacin] = 92.5

[a] COCC1=C(C(=O)O)N2C(=O)[C@@H](NC(=O)/C(=N\OC)c3csc(N)n3)[C@H]2SC1 [cefpodoxime]
[b] CCN1CCN(C(=O)N[C@@H](C(=O)N[C@@H]2C(=O)N3C(C(=O)O)=C(CSc4nnnn4C)CS[C@H]23)c2ccc(O)cc2)C(=O)C1=O [cefoperazone]
[c] CO/N=C(\C(=O)N[C@@H]1C(=O)N2C(C(=O)O)=C(COC(N)=O)CS[C@H]12)c1ccco1 [cefuroxime]
Ask: Please order the records by their reported inhibition at 250 µM, lowest number first. Please respond with the labels ordered as the question requires.
Result: b, c, a
(b: 34.5%, c: 51.7%, a: 91.3%)

[I] COc1c(N2C[C@@H]3CCCN[C@@H]3C2)c(F)cc2c(=O)c(C(=O)O)cn(C3CC3)c12 [moxifloxacin]
[II] CO/N=C(\C(=O)N[C@@H]1C(=O)N2C(C(=O)O)=CCS[C@H]12)c1csc(N)n1 [ceftizoxime]
Ask: Hi, I'm comparing two records. Which one has the lower inhibition at 250 µM, I or II ? State your choice using its label.
Result: II
